test system: HOP-18; test: NCI tumour cell line growth inhibition, 48 h
Calls of active or inactive are those of the source. Rule as the data show it: active = GI50 up to about 1.1 µM and inactive = higher.
Listed here are compounds together with their documented GI50.

| compound | GI50 |
| --- | --- |
| COc1ccc(C2S/C(=C\c3ccc(O)cc3)C(=O)N2NC(=O)Cc2ccccc2)cc1 (stereo not given) | > 100 µM (inactive) |
| CN(C)c1ccc(/C=N\N2C(=O)c3ccccc3C2=O)cc1 | > 100 µM (inactive) |
| O=C1C[C@@H]2[C@@H](CCC23CCCC3)N1 | > 100 µM (inactive) |
| Cc1cc2c(ccc3c(C)cc(=O)oc32)o1 | > 55.6 µM (inactive) |
| O=C(/C=C/C1C(=O)NC(=O)NC1=O)CC(=O)C(=O)Nc1cc(Cl)c(Cl)cc1Cl | > 100 µM (inactive) |

====

system: A549; test: NCI tumour cell line growth inhibition, 48 h
Active and inactive are the calls of the source. No stated cut-off is given here; in the data, active = GI50 up to about 1.1 µM and inactive = higher.
Outcome codes: 1.0 for active, 0.0 for inactive

| compound | categoryLabel |
| --- | --- |
| N#C/C(=C/c1ccsc1)C(=O)c1ccccc1 | 0.0 |
| C[C@]12CCC3[C@@H](CC[C@@H]4c5nonc5CC[C@]34C)C1C/C(=N/O)C2=O (stereo not given in full) | 0.0 |
| COc1cc2c(cc1OCCN1CCN(CCOc3cc4c(cc3OC)C(=O)N3CCC[C@H]3C=N4)CC1)N=C[C@@H]1CCCN1C2=O | 0.0 |
| COC(=O)C1=C(C(=O)OC)C2OC1c1cc3ccccc3cc12 | 0.0 |
| CCOC(=O)/C(=C\c1ccc(N(C)C)cc1)S(=O)(=O)C(F)(F)C(F)(F)C(F)(F)C(F)(F)F | 0.0 |
| CC(=O)O[C@H]1CCn2c3c(c(C)c21)C(=O)C(N1CC1)=C(C)C3=O | 0.0 |
| C=C(C(=O)OC)N1C(=O)CC(C)C1=O (stereo not given) | 0.0 |
| Cc1c(O)c(=O)ccn1C1OC(CO)C(O)C1O (stereo not given) | 0.0 |
| CC[C@@]1(O)C(=O)OCc2c1cc1n(c2=O)Cc2c-1nc1ccccc1c2/C=N\NC(=O)C(N)CCSC (stereo not given in full) | 1.0 |
| COc1cc(NS(C)(=O)=O)ccc1N1Cc2c[nH]c3ccc4nccc1c4c23 | 0.0 |
| O=C(O)c1cc2c3ccccc3nc-2c[nH]1 | 0.0 |
| NS(=O)(=O)c1nnc(NC(=O)N(c2ccccc2)c2ccccc2)s1 | 0.0 |
| COc1ccc(C(=O)O[C@H]2[C@@H]3C=CO[C@@H](OC4OC(CO)C(O)C(O)C4O)[C@@H]3[C@@]3(CO)O[C@@H]23)cc1O (stereo not given in full) | 0.0 |
| O=S1(=O)NN=C(NCc2ccc(Cl)cc2)c2ccccc21 | 0.0 |
| O=C(O)CNS(=O)(=O)c1ccc(NC(=O)c2ccc([N+](=O)[O-])cc2)cc1 | 0.0 |
| CSc1c(C#N)c(O)n(-c2ccc(Cl)cc2)c(=O)c1C(C)=O | 0.0 |
| Cc1cn([C@@H]2C[C@H]2CO)c(=O)[nH]c1=O | 0.0 |
| CC(=O)c1c2c(cc3c1CC1(Cc4ccccc4C1=O)C3)CCC2 (stereo not given) | 0.0 |
| Cc1cc2c(cc1C)[n+]([O-])c(C(=O)CC(=O)C(=O)Nc1ccccc1C)c(C)[n+]2[O-] | 0.0 |
| COC1=C(OC)C(=O)c2cc(C)c(=O)c(C)cc2C1=O | 0.0 |
| CSc1nc(NC(C)C)c2c(n1)Sc1nc3ccccc3n1N=C2 | 0.0 |
| Cc1ccc(-c2cs/c(=N\c3c(C)n(C)n(-c4ccccc4)c3=O)n2CCO)cc1 | 0.0 |
| Cc1ccc(S(=O)(=O)NC(=O)NC(CCCCN)C(=O)O)cc1 (stereo not given) | 0.0 |
| C/C(CC(=O)Nc1cc(Cl)c(Cl)cc1Cl)=N\NS(=O)(=O)c1ccc(C)cc1 | 0.0 |
| Clc1ccc(OCc2nnc(CCCCCCCCc3nnc(COc4ccc(Cl)cc4)o3)o2)cc1 | 0.0 |
| O=C(CN1CCOCC1)Nc1ccc2c(c1)C1Oc3ccccc3CC1CO2 (stereo not given) | 0.0 |
| CC(C)N(C(=O)C12C3C4C1C1C4(C#N)C3C12C#N)C(C)C (stereo not given) | 0.0 |
| O=C(c1ccccc1)c1ccc2cccc(OC3OC(CO)C(O)C(O)C3O)c2n1 (stereo not given) | 0.0 |
| CC1(C)OP(=O)(c2ccccc2)C=C1Br (stereo not given) | 0.0 |
| CC1(c2ccccc2)CC(c2cccc([N+](=O)[O-])c2)=NO1 (stereo not given) | 0.0 |
| CCOC(=O)CN1CC(C2=C(O)CN(CC(=O)OCC)C2=O)=CC1=O | 0.0 |
| CC(C)Oc1ccc(CNC2=NCCO2)c2ccccc12 | 0.0 |
| CCOC(=O)C1=C(C)N(NC(=O)OC)C2(N)N(NC(=O)OC)C(C)=C(C(=O)OCC)C12C#N (stereo not given) | 0.0 |
| N#Cc1cc2cc3c4c(c2oc1=O)CCCN4CCC3 | 0.0 |
| CC1=C(Br)C(=O)C(C)=C(Br)C1=O.Cc1c(O)c(Br)c(C)c(O)c1Br | 0.0 |
